test system: Leukemia subpanel; assay: cells; settings: Homo sapiens, read-out: LC50 MG_MID
parameter: log10 CC50 (log10 of the value in µM)

# compound, log10 CC50
records = [
    ("CC1(C)CC[C@]23CC[C@]4(C)[C@H](CC[C@@H]5[C@@]6(C)CCCNC(C)(C)[C@@H]6CC[C@]54C)[C@H]2[C@H]1OC3 [Compound 7, Azepanoallobetulin]", 1.97),
    ("C=C(C)[C@@H]1CC[C@]2(C)[C@H](CC=C3[C@@H]4[C@@H](C)[C@H](C)CC[C@]4(CO)CC[C@]32C)[C@@]1(C)CCCN [Compound 19]", 1.52),
    ("C[C@H]1[C@H](C)CC[C@]2(CO)CC[C@]3(C)C(=CC[C@@H]4[C@@]5(C)CCCNC(C)(C)[C@@H]5CC[C@]43C)[C@H]12 [Compound 4, azepanouvaol]", 0.90),
    ("CC1(C)NCCC[C@]2(C)[C@H]3C=CC4=C5C[C@@](C)(CO)CC[C@]5(C)CC[C@@]4(C)[C@]3(C)CC[C@@H]12 [Compound 6, azepano-glycyrrhetol-diene]", 1.74),
    ("CC(C)=C1CCC=C2CC[C@]3(C)[C@H](CC[C@@H]4[C@@]5(C)CCCNC(C)(C)[C@@H]5CC[C@]43C)[C@H]21 [Compound 9]", 0.86),
]

###

tested on: Prostate cancer subpanel; test: NCI-60 screen, subpanel; settings: Homo sapiens, read-out: GI50 MG_MID
# maps each entry to its GI50

# molecule, GI50
measured = [
    ("CC1(C)CC[C@]2(CO)CC[C@]3(C)C(=CC[C@@H]4[C@@]5(C)CCCNC(C)(C)[C@@H]5CC[C@]43C)[C@@H]2C1 [Compound 3, azepanoerythrodiol]", "1.89 µM"),
    ("Cc1ccc(S(=O)(=O)OC[C@]23CCC(C)(C)C[C@H]2C2=CC[C@@H]4[C@@]5(C)CCCNC(C)(C)[C@@H]5CC[C@@]4(C)[C@]2(C)CC3)cc1 [Compound 15]", "1.72 µM"),
    ("Cc1ccc(S(=O)(=O)OC[C@@]2(C)CC[C@]3(C)CC[C@]4(C)C(=C3C2)C=C[C@@H]2[C@@]3(C)CCCNC(C)(C)[C@@H]3CC[C@]24C)cc1 [Compound 16]", "1.67 µM"),
]

###

system: Prostate cancer subpanel; test: NCI-60 screen, subpanel; details: Homo sapiens, 48 h, read-out: TGI MG_MID
# maps each entry to its IC (TGI)

# smiles-record, tested-target, IC (TGI) [µM]
records = [
    ("C=C(C)[C@@H]1CC[C@]2(C)[C@H](C=CC3=C4C[C@@](C)(CO)CC[C@]4(C)CC[C@]32C)[C@@]1(C)CCCN", "Prostate cancer subpanel", 3.22),
    ("CC1(C)CC[C@]23CC[C@]4(C)[C@H](CC[C@@H]5[C@@]6(C)CCCNC(C)(C)[C@@H]6CC[C@]54C)[C@H]2[C@H]1OC3", "Prostate cancer subpanel", 3.2),
    ("CC(C)=C1CCC=C2CC[C@]3(C)[C@H](CC[C@@H]4[C@@]5(C)CCCNC(C)(C)[C@@H]5CC[C@]43C)[C@H]21", "Prostate cancer subpanel", 3.29),
]

###

tested on: HCT-116 (Colon cancer); test: NCI-60 screen (SRB, 48 h); settings: Homo sapiens, HCT-116, 48 h, read-out: Growth % of the Most Sensitive Cell Lines

# molecule, activity at 10 µM, %
measured = [
    ("CC1(C)CC[C@]23CC[C@]4(C)[C@H](CC[C@@H]5[C@@]6(C)CCCNC(C)(C)[C@@H]6CC[C@]54C)[C@H]2[C@H]1OC3", -99.4),
    ("C=C(C)[C@@H]1CC[C@]2(C(=O)N[C@H](CO)Cc3ccccc3)CC[C@]3(C)[C@H](CC[C@@H]4[C@@]5(C)CCCNC(C)(C)[C@@H]5CC[C@]43C)[C@@H]12", -94.8),
    ("CC1(C)CC[C@]2(CO)CC[C@]3(C)C(=CC[C@@H]4[C@@]5(C)CCCNC(C)(C)[C@@H]5CC[C@]43C)[C@@H]2C1", -85.8),
    ("C=C(C)C1CCC2(CO)CCC3(C)C(CCC4C5(C)CCCNC(C)(C)C5CCC43C)C12 (stereo not drawn)", -79),
    ("Cc1ccc(S(=O)(=O)OC[C@@]2(C)CC[C@]3(C)CC[C@]4(C)C(=C3C2)C=C[C@@H]2[C@@]3(C)CCCNC(C)(C)[C@@H]3CC[C@]24C)cc1", -91.5),
    ("C[C@H]1[C@H](C)CC[C@]2(CO)CC[C@]3(C)C(=CC[C@@H]4[C@@]5(C)CCCNC(C)(C)[C@@H]5CC[C@]43C)[C@H]12", -94.7),
]

###

test system: SW-620 (Colon cancer); assay: NCI-60 screen (SRB, 48 h); settings: Homo sapiens, SW-620, 48 h, read-out: TGI
# maps each entry to its IC (TGI)
parameter: IC (TGI) (µM)

# smiles-record, tested-target, parameter, meas-value
data = [
    ("C[C@H]1[C@H](C)CC[C@]2(CO)CC[C@]3(C)C(=CC[C@@H]4[C@@]5(C)CCCNC(C)(C)[C@@H]5CC[C@]43C)[C@H]12", "SW-620 (Colon cancer)", "IC (TGI)", 3.54),
    ("CC(C)=C1CCC=C2CC[C@]3(C)[C@H](CC[C@@H]4[C@@]5(C)CCCNC(C)(C)[C@@H]5CC[C@]43C)[C@H]21", "SW-620 (Colon cancer)", "IC (TGI)", 3.23),
    ("C[C@H]1[C@H](C)CC[C@]2(C(=O)Nc3ccc4ncccc4c3)CC[C@]3(C)C(=CC[C@@H]4[C@@]5(C)CCCNC(C)(C)[C@@H]5CC[C@]43C)[C@H]12", "SW-620 (Colon cancer)", "IC (TGI)", 3.37),
    ("C=C(C)[C@@H]1CC[C@]2(C)[C@H](C=CC3=C4C[C@@](C)(CO)CC[C@]4(C)CC[C@]32C)[C@@]1(C)CCCN", "SW-620 (Colon cancer)", "IC (TGI)", 3.04),
]

###

system: SK-OV-3 (Ovarian cancer); assay: NCI-60 screen (SRB, 48 h); settings: Homo sapiens, SK-OV-3, 48 h, read-out: TGI

# smiles-record, IC (TGI), µM
measured = [
    ("Cc1ccc(S(=O)(=O)OC[C@]23CCC(C)(C)C[C@H]2C2=CC[C@@H]4[C@@]5(C)CCCNC(C)(C)[C@@H]5CC[C@@]4(C)[C@]2(C)CC3)cc1", 3.26),
    ("CC1(C)CC[C@]23CC[C@]4(C)[C@H](CC[C@@H]5[C@@]6(C)CCCNC(C)(C)[C@@H]6CC[C@]54C)[C@H]2[C@H]1OC3", 7.93),
    ("Cc1ccc(S(=O)(=O)OC[C@@]2(C)CC[C@]3(C)CC[C@]4(C)C(=C3C2)C=C[C@@H]2[C@@]3(C)CCCNC(C)(C)[C@@H]3CC[C@]24C)cc1", 3.25),
]

###

# maps each entry to its IC (TGI)
test system: UACC-62 (Melanoma); experiment: NCI-60 screen (SRB, 48 h); settings: Homo sapiens, UACC-62, 48 h, read-out: TGI
parameter: IC (TGI) (µM)

# smiles-record, parameter, meas-value
measured = [
    ("CC1(C)CC[C@]2(CO)CC[C@]3(C)C(=CC[C@@H]4[C@@]5(C)CCCNC(C)(C)[C@@H]5CC[C@]43C)[C@@H]2C1", "IC (TGI)", 3.93),
    ("C=C(C)[C@@H]1CC[C@]2(C)[C@H](C=CC3=C4C[C@@](C)(CO)CC[C@]4(C)CC[C@]32C)[C@@]1(C)CCCN", "IC (TGI)", 3.17),
    ("C=C(C)[C@@H]1CCC=C2CC[C@]3(C)[C@H](CC[C@@H]4[C@@]5(C)CCCNC(C)(C)[C@@H]5CC[C@]43C)[C@H]21", "IC (TGI)", 3.16),
    ("C[C@H]1[C@H](C)CC[C@]2(CO)CC[C@]3(C)C(=CC[C@@H]4[C@@]5(C)CCCNC(C)(C)[C@@H]5CC[C@]43C)[C@H]12", "IC (TGI)", 3.35),
    ("C[C@H]1[C@H](C)CC[C@]2(C(=O)Nc3ccc4ncccc4c3)CC[C@]3(C)C(=CC[C@@H]4[C@@]5(C)CCCNC(C)(C)[C@@H]5CC[C@]43C)[C@H]12", "IC (TGI)", 3.23),
    ("CC(C)=C1CCC=C2CC[C@]3(C)[C@H](CC[C@@H]4[C@@]5(C)CCCNC(C)(C)[C@@H]5CC[C@]43C)[C@H]21", "IC (TGI)", 3.22),
    ("Cc1ccc(S(=O)(=O)OC[C@]23CCC(C)(C)C[C@H]2C2=CC[C@@H]4[C@@]5(C)CCCNC(C)(C)[C@@H]5CC[C@@]4(C)[C@]2(C)CC3)cc1", "IC (TGI)", 3.2),
    ("Cc1ccc(S(=O)(=O)OC[C@@]2(C)CC[C@]3(C)CC[C@]4(C)C(=C3C2)C=C[C@@H]2[C@@]3(C)CCCNC(C)(C)[C@@H]3CC[C@]24C)cc1", "IC (TGI)", 3.39),
    ("C=C(C)[C@@H]1CC[C@]2(C(=O)N[C@H](CO)Cc3ccccc3)CC[C@]3(C)[C@H](CC[C@@H]4[C@@]5(C)CCCNC(C)(C)[C@@H]5CC[C@]43C)[C@@H]12", "IC (TGI)", 3.39),
    ("CC1(C)CC[C@]23CC[C@]4(C)[C@H](CC[C@@H]5[C@@]6(C)CCCNC(C)(C)[C@@H]6CC[C@]54C)[C@H]2[C@H]1OC3", "IC (TGI)", 3.21),
    ("C=C(C)[C@@H]1CC[C@]2(COS(=O)(=O)c3ccc(C)cc3)CC[C@]3(C)[C@@H](CC[C@@H]4[C@@]5(C)CCCNC(C)(C)[C@@H]5CC[C@]43C)[C@@H]12", "IC (TGI)", 3.64),
]
